test system: HL-60(TB) leukemia; assay: NCI tumour cell line growth inhibition, 48 h
Attribute: TGI
Response body: numeric value in µM, unit text excluded.

Look over these answered cases.
TGI value, target or system HL-60(TB) leukemia, for CC1OC(OC2C[C@](O)(C(=O)CBr)Cc3c(O)c4c(c(O)c32)C(=O)c2ccccc2C4=O)C(F)C(O)C1O (stereo not given in full) : 3.22

Kindly note: HL-60(TB) leukemia, "COc1ccccc1N1CCN(CCCOc2ccc(C(=O)/C=C3/C(=O)Nc4ccccc43)cc2)CC1" , TGI value reported: 27.2

Record Fc1cc2nc3n(c2cc1F)C(c1c(Cl)cccc1Cl)SC3 (stereo not given) has HL-60(TB) leukemia TGI equal to 70.9

Value (TGI, HL-60(TB) leukemia) for record "N#Cc1ccc(NC(=O)Nc2nc3ccc(OC(F)(F)F)cc3s2)cc1" = 21.3

// moving on: another record for TGI
Entry "CCCCn1c(C)c2c(c1C)C(=O)N(CCN1CCN(c3ccccc3Cl)CC1)C2=O" under HL-60(TB) leukemia had TGI of 51

Measured values drawn from PubChem BioAssay (NCI) for this set.
